- TARGET OR TEST SYSTEM: dopamine D1 receptor (Macaca mulatta (Rhesus macaque), UniProt O77680)
- Sequence (O77680 whole entry): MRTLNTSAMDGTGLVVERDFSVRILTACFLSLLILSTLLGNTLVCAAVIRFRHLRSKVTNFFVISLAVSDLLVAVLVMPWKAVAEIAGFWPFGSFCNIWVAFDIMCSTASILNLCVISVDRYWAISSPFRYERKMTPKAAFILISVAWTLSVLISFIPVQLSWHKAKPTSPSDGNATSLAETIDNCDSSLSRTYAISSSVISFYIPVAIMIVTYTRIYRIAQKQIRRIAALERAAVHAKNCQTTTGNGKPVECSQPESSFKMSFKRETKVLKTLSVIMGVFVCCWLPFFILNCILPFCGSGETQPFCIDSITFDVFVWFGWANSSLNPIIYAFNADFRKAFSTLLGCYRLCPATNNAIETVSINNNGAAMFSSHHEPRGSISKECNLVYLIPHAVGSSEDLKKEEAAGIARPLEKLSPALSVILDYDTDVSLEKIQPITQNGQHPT
- ASSAY INFO: Affinity on dopamine D1 receptor, competition with [3H] SCH23390
- Format: binding
- Parameters: concentration or dose not given beside the values
REPORTED PROPERTY: D1 receptor inhibition ratio (%)

In the examples that follow, each entry is paired with its recorded D1 receptor inhibition ratio (%).
- MOLECULE: "COc1cc2c(cc1OC)C1Cc3cc4c(cc3CN1CC2)OCO4 (racemic)"
  REPORTED PROPERTY: "D1 receptor inhibition ratio (%)"
  UNITS OF MEASURE: "%"
  MEASURED NUMBER: 58.2
- MOLECULE: "c1c2c(cc3c1OCO3)CN1CCc3cc4c(cc3[C@@H]1C2)OCO4"
  REPORTED PROPERTY: "D1 receptor inhibition ratio (%)"
  UNITS OF MEASURE: "%"
  MEASURED NUMBER: 95.8
- MOLECULE: "COc1cc2c(cc1OC)C1Cc3c(OC)ccc(OC)c3CN1CC2 (racemic)"
  REPORTED PROPERTY: "D1 receptor inhibition ratio (%)"
  UNITS OF MEASURE: "%"
  MEASURED NUMBER: 98.0
- MOLECULE: "COc1cc2c(c(OC)c1OC)CN1CCc3cc4c(cc3[C@@H]1C2)OCO4"
  REPORTED PROPERTY: "D1 receptor inhibition ratio (%)"
  UNITS OF MEASURE: "%"
  MEASURED NUMBER: 95.5
- MOLECULE: "COc1cc2c(cc1O)[C@@H]1Cc3c(OC)ccc(OC)c3CN1CC2"
  REPORTED PROPERTY: "D1 receptor inhibition ratio (%)"
  UNITS OF MEASURE: "%"
  MEASURED NUMBER: 99.89
- MOLECULE: "COc1cc2c(cc1OC)CN1CCc3cc4c(cc3C1C2)OCO4 (racemic)"
  REPORTED PROPERTY: "D1 receptor inhibition ratio (%)"
  UNITS OF MEASURE: "%"
  MEASURED NUMBER: 56.5
- MOLECULE: "Cc1ccc(C)c2c1CC1c3cc4c(cc3CCN1C2)OCO4 (stereo not shown)"
  REPORTED PROPERTY: "D1 receptor inhibition ratio (%)"
  UNITS OF MEASURE: "%"
  MEASURED NUMBER: 91.94
- MOLECULE: "COc1cc2c(c(OC)c1)CN1CCc3cc4c(cc3[C@@H]1C2)OCO4"
  REPORTED PROPERTY: "D1 receptor inhibition ratio (%)"
  UNITS OF MEASURE: "%"
  MEASURED NUMBER: 97.79

a: COc1ccc2c(c1)CCN1Cc3cc(OC)c(OC)cc3CC21 (racemic)
b: COc1cc2c(cc1OC)[C@@H]1Cc3cc(OC)c(OC)c(OC)c3CN1CC2
Compare the recorded D1 receptor inhibition ratio (%) of a and b ; state which is larger. Return value: the label identifying the chosen record.
b
(b: 91.75%, a: −13.6%)

A: COc1ccc2c(c1)CCN1Cc3c(cc(OC)c(OC)c3OC)CC21 (racemic)
B: COc1cc2c(cc1OC)[C@@H]1Cc3cc4c(cc3CN1CC2)OCO4
Input pair: A , B . Output: entry with lower D1 receptor inhibition ratio (%). Return value: the label identifying the chosen record.
B

P: COc1c(O)ccc2c1CN1CCc3cc4c(cc3[C@@H]1C2)OCCO4
Q: COc1cc2c(cc1OC)CN1CCc3cc4c(cc3[C@@H]1C2)OCO4
Compare the recorded D1 receptor inhibition ratio (%) of P and Q ; state which is larger. Return value: the label identifying the chosen record.
P

I: COc1ccc(OC)c2c1C[C@H]1c3cc(O)c(O)cc3CCN1C2
II: COc1cc2c(cc1OC)CN1CCc3cc(OC)c(OC)cc3C1C2 (racemic)
Compare the recorded D1 receptor inhibition ratio (%) of I and II ; state which is larger. Return value: the label identifying the chosen record.
I
